TEST DESCRIPTION: Side effects of Gemcitabine: body and muscle weight, serum biochemical and blood cell analysis in KC mice
Assay type: in vivo
STUDY CONDITIONS: Caerulein-treated KC mice; Gemcitabine 200 mg/kg alone
READOUT LABEL: ALT (U/L)
// units = U/L; emit number, no label

Ask | Can you share its ALT? I mean this compound: Nc1ccn([C@@H]2O[C@H](CO)[C@@H](O)C2(F)F)c(=O)n1 [Gemcitabine]
Reply | 60
